# target: Human TRPA1 (Homo sapiens)
# method: Assay 1: In vitro cellular testing of TRPA1 modulation (CHO-TREx, Fluo-3 calcium fluorescence, AITC agonist)
# Format: cell-based
# Design: expressed in transfected cells; host or cells: CHO-TREx cells (Invitrogen), vector pcDNA4/TO
# test_context: CHO-TREx cells expressing human TRPA1; Fluo-3 fluorescence (FLIPR/Tetra); agonist 15 μM allyl isothiocyanate (AITC); 30 minute antagonist incubation
Below is a list of entries, each paired with its recorded pIC50 value.
Quick note: pIC50 values are minus log10 of concentrations in mol/L.

Please review the entries below; each comes with its answer.
INSERT INTO assay_data (molecule, readout_name, obs_value) VALUES
  ('O=C(NCc1cc(-c2ccc(C(F)(F)F)cc2)ncn1)[C@@H]1CCCN1S(=O)(=O)c1ccco1 [Example 167]', 'pIC50', 7.20),
  ('O=C(NCc1nccc(-c2ccc(C(F)(F)F)cc2)n1)[C@@H]1CCCN1S(=O)(=O)c1ccc(F)cc1 [Example 185]', 'pIC50', 6.36),
  ('O=C(NCc1cc(-c2ccc(C(F)(F)F)cc2)ncn1)[C@@H]1CCCN1S(=O)(=O)c1cccc(C(F)(F)F)c1 [Example 157]', 'pIC50', 5.33);

Req: Need pIC50 of CN(C)c1cc(CNC(=O)[C@@H]2C=CCN2S(=O)(=O)c2ccc(Cl)s2)cc(-c2ccc(C(F)(F)F)cc2)n1 [Example 334] , thanks.
Resp: 5.58

----------
# target: UniProtKB O75762
# method: Alternative TRPA1 Ca2+ fluorometry assay (hTRPA1/TREx-HEK293 cells, Fluo-4, FDSS 6000)
# Type: cell-based
# Set-up: expressed in transfected cells
# test_context: Fluo-4-AM, agonist 6,11-dihydro-5H-dibenzo[b,e]azepine-10-carboxylic acid methyl ester 25 nM, procedure used for Examples 184, 190 to 192, 194 to 316
Below is a list of entries, each paired with its recorded pIC50 value.
Quick note: pIC50 values are minus log10 of concentrations in mol/L.

Please review the entries below; each comes with its answer.
INSERT INTO measurements (smiles_notation, readout_name, obs_value) VALUES
  ('CCCCNc1nc(CNC(=O)[C@@H]2CCCN2S(=O)(=O)c2ccc(F)cc2)cc(-c2ccc(Br)cc2)n1', 'pIC50', 5.99),
  ('C#CCNc1nc(CNC(=O)[C@@H]2CCCN2S(=O)(=O)c2ccc(F)cc2)cc(-c2ccc(Br)cc2)n1', 'pIC50', 6.00);

Req: Need pIC50 of `O=C(NCc1cc(-c2ccc(C(F)(F)F)cc2)nc(N2CCN(c3ccccc3F)CC2)n1)[C@@H]1CCCN1S(=O)(=O)c1ccc(Cl)cc1` , thanks.
Resp: 6.64

----------
# target: UniProt O75762
# method: Assay 1: In vitro cellular testing of TRPA1 modulation (CHO-TREx, Fluo-3 calcium fluorescence, AITC agonist)
# Type: cell-based
# Design: expressed in transfected cells; host or cells: CHO-TREx cells (Invitrogen), vector pcDNA4/TO
# test_context: CHO-TREx cells expressing human TRPA1; Fluo-3 fluorescence (FLIPR/Tetra); agonist 15 μM allyl isothiocyanate (AITC); 30 minute antagonist incubation
Below is a list of entries, each paired with its recorded IC50 value.
Write it as a number; the unit nM goes unstated.

Please review the entries below; each comes with its answer.
INSERT INTO measurements (compound, target, obs_value) VALUES
  ('CC(Nc1cc(CNC(=O)[C@@H]2C=CCN2S(=O)(=O)c2ccc(F)cc2)cc(-c2ccc(C(F)(F)F)cc2)n1)c1ccccc1 (stereo partly drawn)', 'UniProt O75762', 833),
  ('O=C(NCc1cc(-c2ccc(C(F)(F)F)cc2)nc(N2CCN(Cc3cccnc3)CC2)c1)[C@@H]1CCCN1S(=O)(=O)c1ccc(Cl)s1', 'UniProt O75762', 693);

Here is the next item to consider.
Req: Need IC50 of `O=C(NCc1cc(-c2ccc(C(F)(F)F)cc2)nc(OCC(F)(F)F)n1)[C@@H]1CC(F)(F)CN1S(=O)(=O)c1ccc(Cl)s1` , thanks.
Resp: 105

----------
Below is a list of entries, each paired with its recorded IC50 value.
# target: Human TRPA1 (Homo sapiens)
# method: Assay 1: In vitro cellular testing of TRPA1 modulation (CHO-TREx, Fluo-3 calcium fluorescence, AITC agonist)
# Format: cell-based
# Design: expressed in transfected cells; host or cells: CHO-TREx cells (Invitrogen), vector pcDNA4/TO
# test_context: CHO-TREx cells expressing human TRPA1; Fluo-3 fluorescence (FLIPR/Tetra); agonist 15 μM allyl isothiocyanate (AITC); 30 minute antagonist incubation

Please review the entries below; each comes with its answer.
INSERT INTO measurements (compound, readout_name, obs_value) VALUES
  ('O=C(NCc1cc(-c2ccc(C(F)(F)F)cc2)ccn1)[C@@H]1CC(F)(F)CN1S(=O)(=O)c1ccc(F)cc1 [Example 139]', 'IC50', '73 nM'),
  ('O=C(NCc1cccc(-c2ccc(Cl)cn2)c1)[C@@H]1CCCN1S(=O)(=O)c1ccc(F)cc1 [Example 91]', 'IC50', '175 nM'),
  ('CC(C)CN1CCN(c2nc(CNC(=O)[C@@H]3C=CCN3S(=O)(=O)c3ccc(Cl)s3)cc(-c3ccc(C(F)(F)F)cc3)n2)CC1 [Example 56]', 'IC50', '51 nM');

Req: Need IC50 of O=C(NCc1cccc(-c2ccc(C(F)(F)F)cc2)c1)[C@@H]1C=CCN1S(=O)(=O)c1ccc(F)cc1 [Example 111] , thanks.
Resp: 14 nM

----------
Below is a list of entries, each paired with its recorded IC50 value.
# target: Human TRPA1 (Homo sapiens)
# method: Alternative TRPA1 Ca2+ fluorometry assay (hTRPA1/TREx-HEK293 cells, Fluo-4, FDSS 6000)
# Assay type: cell-based
# Design: expressed in transfected cells
# test_context: Fluo-4-AM, agonist 6,11-dihydro-5H-dibenzo[b,e]azepine-10-carboxylic acid methyl ester 25 nM, procedure used for Examples 184, 190 to 192, 194 to 316

Please review the entries below; each comes with its answer.
INSERT INTO measurements (compound, readout_name, obs_value) VALUES
  ('CC(Nc1nc(CNC(=O)[C@@H]2CCCN2S(=O)(=O)c2ccc(F)cc2)cc(-c2ccc(C(F)(F)F)cc2)n1)c1ccccc1 (stereo partly drawn) [Example 313]', 'IC50', '~489 nM'),
  ('O=C(NCc1cc(-c2ccc(C(F)(F)F)cc2)nc(N2CCN(c3ccccc3F)CC2)n1)[C@@H]1CCCN1S(=O)(=O)c1ccc(F)cc1 [Example 286]', 'IC50', '~158 nM'),
  ('CN1CCN(c2nc(CNC(=O)[C@@H]3CCCN3S(=O)(=O)c3ccc(F)cc3)cc(-c3ccc(C(F)(F)F)cc3)n2)CC1 [Example 314]', 'IC50', '~1320 nM'),
  ('O=C(NCc1cc(-c2ccc3c(c2)OCO3)nc(Nc2cccc(Cl)c2)n1)[C@@H]1CCCN1S(=O)(=O)c1ccc(F)cc1 [Example 223]', 'IC50', '> 10000 nM'),
  ('O=C(NCc1cc(-c2ccc(F)cc2F)nc(N2CCN(c3ccccc3F)CC2)n1)[C@@H]1CCCN1S(=O)(=O)c1ccc(F)cc1 [Example 233]', 'IC50', '~372 nM');

Req: Need IC50 of CCOC(=O)C1CCN(c2nc(CNC(=O)[C@@H]3CCCN3S(=O)(=O)c3ccc(F)cc3)cc(-c3ccc(Br)cc3)n2)CC1 [Example 214] , thanks.
Resp: ~977 nM

----------
# target: Human TRPA1 (Homo sapiens, UniProt O75762)
# Sequence (O75762 whole entry): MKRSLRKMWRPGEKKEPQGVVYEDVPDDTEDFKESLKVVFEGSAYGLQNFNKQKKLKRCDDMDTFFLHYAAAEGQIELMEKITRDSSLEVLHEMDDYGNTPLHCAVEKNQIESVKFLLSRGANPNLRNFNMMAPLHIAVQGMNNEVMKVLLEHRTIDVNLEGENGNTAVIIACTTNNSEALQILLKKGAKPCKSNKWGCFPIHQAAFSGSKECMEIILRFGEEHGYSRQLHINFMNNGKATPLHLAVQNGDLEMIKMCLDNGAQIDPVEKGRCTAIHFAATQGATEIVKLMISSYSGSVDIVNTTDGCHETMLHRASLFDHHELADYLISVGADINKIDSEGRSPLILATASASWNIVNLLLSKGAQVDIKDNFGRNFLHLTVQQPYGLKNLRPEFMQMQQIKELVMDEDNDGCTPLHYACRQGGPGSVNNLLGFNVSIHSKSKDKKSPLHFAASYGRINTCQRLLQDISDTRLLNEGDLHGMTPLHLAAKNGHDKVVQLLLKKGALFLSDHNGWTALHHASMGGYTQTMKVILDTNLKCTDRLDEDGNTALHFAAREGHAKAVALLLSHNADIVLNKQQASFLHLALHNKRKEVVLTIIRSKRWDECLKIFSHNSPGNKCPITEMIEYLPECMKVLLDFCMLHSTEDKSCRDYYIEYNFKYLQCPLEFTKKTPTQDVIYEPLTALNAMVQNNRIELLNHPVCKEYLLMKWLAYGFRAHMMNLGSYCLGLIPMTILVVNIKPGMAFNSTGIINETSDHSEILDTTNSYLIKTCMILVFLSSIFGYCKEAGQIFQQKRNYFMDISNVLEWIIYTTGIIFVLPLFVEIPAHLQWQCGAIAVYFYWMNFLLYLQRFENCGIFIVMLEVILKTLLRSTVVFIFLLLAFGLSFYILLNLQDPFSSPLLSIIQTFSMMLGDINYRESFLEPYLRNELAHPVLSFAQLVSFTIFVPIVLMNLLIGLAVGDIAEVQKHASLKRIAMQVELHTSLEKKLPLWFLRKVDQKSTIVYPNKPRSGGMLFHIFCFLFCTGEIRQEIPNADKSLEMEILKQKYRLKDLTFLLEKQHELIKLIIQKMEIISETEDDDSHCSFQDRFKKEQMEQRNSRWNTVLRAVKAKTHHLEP
# method: Assay 1: In vitro cellular testing of TRPA1 modulation (CHO-TREx, Fluo-3 calcium fluorescence, AITC agonist)
# Assay type: cell-based
# Design: expressed in transfected cells; host or cells: CHO-TREx cells (Invitrogen), vector pcDNA4/TO
# test_context: CHO-TREx cells expressing human TRPA1; Fluo-3 fluorescence (FLIPR/Tetra); agonist 15 μM allyl isothiocyanate (AITC); 30 minute antagonist incubation
Below is a list of entries, each paired with its recorded IC50 value.
Write it as a number; the unit nM goes unstated.

Please review the entries below; each comes with its answer.
INSERT INTO assay_data (compound, target, endpoint_unit, obs_value) VALUES
  ('O=C(NCc1cccc(-c2ccc([N+](=O)[O-])cc2)c1)[C@@H]1CCCN1S(=O)(=O)c1ccc(F)cc1', 'Human TRPA1 (Homo sapiens, UniProt O75762)', 'nM', 24),
  ('CN(C)c1cc(CNC(=O)[C@@H]2CCCN2S(=O)(=O)c2ccc(Cl)s2)cc(-c2ccc(C(F)(F)F)cc2)n1', 'Human TRPA1 (Homo sapiens, UniProt O75762)', 'nM', 58),
  ('O=C(NCc1cccc(-c2ccc(OCC(F)(F)F)cc2)c1)[C@@H]1CCCN1S(=O)(=O)c1ccc(F)cc1', 'Human TRPA1 (Homo sapiens, UniProt O75762)', 'nM', 93);

Req: Need IC50 of CC1CCCN1c1nc(CNC(=O)[C@@H]2CCCN2S(=O)(=O)c2ccc(Cl)s2)cc(-c2ccc(C(F)(F)F)cc2)n1 (stereo partly shown) , thanks.
Resp: 6
